Values were extracted from PubChem BioAssay.

Please provide measured composite z-score for the entries that follow.
molecular target: Follistatin (Homo sapiens) (UniProt P19883); experiment: follistatin binders on small-molecule microarrays, primary screen, biochemical, small-molecule microarray, 635/667 nm fluorescence (AID 1132); conditions: FST binding, 635 nm fluorescence, higher = more signal
Sequence (P19883 whole entry, looked up): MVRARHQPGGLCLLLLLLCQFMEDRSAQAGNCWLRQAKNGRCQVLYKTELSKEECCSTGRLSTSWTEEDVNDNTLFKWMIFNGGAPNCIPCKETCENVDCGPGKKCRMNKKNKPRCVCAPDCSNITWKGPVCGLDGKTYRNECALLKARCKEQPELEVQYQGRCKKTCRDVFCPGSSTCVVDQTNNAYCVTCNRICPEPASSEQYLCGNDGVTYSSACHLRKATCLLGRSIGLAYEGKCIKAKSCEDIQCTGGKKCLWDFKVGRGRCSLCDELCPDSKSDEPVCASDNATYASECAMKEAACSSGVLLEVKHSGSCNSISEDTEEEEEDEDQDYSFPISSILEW

Data request: Give its composite z-score value. Item: CC(=O)NCCCC[C@@H]1NC(=O)[C@@H]2C[C@H](C(=O)NCCCCCCNC(=O)CS)[C@H](c3ccc(O)cc3)N2C1=O
Data returned: 0.304

Data request: Note, next up: COC(=O)[C@@]1(Cc2ccc(F)cc2)[C@H]2c3cc(C(=O)N4CCCC4)n(Cc4cccc5ccccc45)c3C[C@H]2CN1C(=O)c1ccccc1
Data returned: 0.0834

Data request: Note, next up: N[C@@H](Cc1ccccc1)Cn1cc(-c2ccccc2)nn1
Data returned: 0.219

Data request: Note, next up: CC(C)CNC(=O)[C@@]1(c2ccc([N+](=O)[O-])cc2)CC(=O)N(CC23CC4CC(CC(C4)C2)C3)[C@@H]1c1ccc(CO)cc1
Data returned: 0.946

Data request: Note, next up: C=C[C@@H](COC(C)=O)N(Cc1ccccc1[N+](=O)[O-])S(=O)(=O)c1ccc(Br)cc1
Data returned: 1.42

Data request: Note, next up: O=C/C=C/c1ccc(Cl)cc1
Data returned: -0.329

Data request: Note, next up: CCOC(=O)C[C@H]1[C@H](OC(=O)Cc2ccc3c(c2)OCO3)[C@@H](NC(=O)c2ccc(-c3ccccc3)cc2)c2cc(OCCCO)ccc2N1C(=O)c1ccccc1
Data returned: 0.526

Data request: Note, next up: CCOC(=O)C1=CCC(C(C)(C)C)N(S(=O)(=O)c2ccc(C)cc2)C1 (stereo not drawn)
Data returned: 1.29

----------
assay: basal HepG2 mitochondrial membrane potential changes, profiling panel, cell-based, JC-1 fluorescence, 24 h, 100 nL compound (AID 1167); details: higher = more signal; further: test concentration not given here
VALUE TYPE: z-score
Give the value as a plain number.

Data request: Give its z-score value. Item: O=C1C2C=CC(C(O)c3ccc(-c4ccccc4)s3)N(n3cnnc3)C2C(=O)N1Cc1ccccc1 (centres undefined)
Data returned: -0.666

Data request: Note, next up: COCCOC(=O)N1C(=O)[C@@]2(c3cc(C#CCC(C(=O)OC)C(=O)OC)ccc31)[C@H](C(=O)N1CCCCCCC1)[C@H]1C(=O)O[C@H](c3ccccc3)[C@H](c3ccccc3)N1[C@@H]2c1ccc(OCCO)cc1
Data returned: 0.322

Data request: Note, next up: O=C1N(CCS(=O)(=O)c2ccccc2)c2ccccc2C[C@@]12COC(c1ccc(OCCCO)cc1)=N2
Data returned: -2.09

Data request: Note, next up: C[C@H]1NC(=O)[C@H](Cc2ccccc2)NC(=O)[C@@]23C(=O)N[C@@H](Cc4ccccc4)C2[C@H](C)[C@@]2(C)O[C@H]2C3/C=C/C/C=C\CNC1=O (some centres undefined)
Data returned: 0.542

----------
molecular target: NADPH oxidase 5 (Homo sapiens); assay: NOX5-dependent H2O2 signal modulators, primary screen, NOX inhibitor project, cell-based, HEK293-NOX5, Amplex Red fluorescence (AID 1161); conditions: HEK293-NOX5, ionomycin, 45 min, higher = more signal
Rule: z-score under -1 gives NO, otherwise YES.

Data request: Does COc1ccc(C(O)C2C=CC3C(=O)N(c4ccccc4)C(=O)C3N2Nc2ccc([N+](=O)[O-])cc2)cc1OCc1ccccc1 (stereo unspecified) have a reported z-score of at least -1?
Data returned: NO

Data request: Note, next up: COCCOC(=O)N1C(=O)[C@@]2(c3cc(C#CCNC(N)=O)ccc31)[C@H](c1ccc(O)cc1)N1[C@H](c3ccccc3)[C@H](c3ccccc3)OC(=O)[C@H]1[C@@H]2C(=O)Nc1nc2ccccc2s1
Data returned: YES

Data request: Note, next up: COc1cccc(C(=O)O[C@H]2CC[C@]3(C)C4=C(CCC3C2(C)C)[C@]2(C)CC[C@H]([C@H](C)CCCC(C)C)[C@@]2(C)CC4)c1 (stereo partly specified)
Data returned: YES

Data request: Note, next up: C=CCC(OC(C)=O)[C@@H]1[C@@H](N(Cc2ccc(-c3ccccc3)cc2)C(=O)Cc2ccc(F)cc2)c2cc(OCCCO)ccc2N1C(=O)c1ccc2ccccc2n1 (stereo partly specified)
Data returned: YES

Data request: Note, next up: COC(=O)c1ccc(C23CC2(C(NP(=O)(c2ccccc2)c2ccccc2)c2ccccc2)C3)cc1 (stereo unspecified)
Data returned: NO

Data request: Note, next up: [N-]=[N+]=Nc1ccccc1[C@@H]1OC(c2ccc(OCCCO)cc2)=N[C@]1(CCS(=O)(=O)c1ccccc1)C(=O)N1CCOCC1
Data returned: YES
